In this section we review reported IC50 values for a set of molecules.
# Assay system: GSK3b (Glycogen synthase kinase-3 beta) (Homo sapiens)
# Sequence (P49841 whole entry): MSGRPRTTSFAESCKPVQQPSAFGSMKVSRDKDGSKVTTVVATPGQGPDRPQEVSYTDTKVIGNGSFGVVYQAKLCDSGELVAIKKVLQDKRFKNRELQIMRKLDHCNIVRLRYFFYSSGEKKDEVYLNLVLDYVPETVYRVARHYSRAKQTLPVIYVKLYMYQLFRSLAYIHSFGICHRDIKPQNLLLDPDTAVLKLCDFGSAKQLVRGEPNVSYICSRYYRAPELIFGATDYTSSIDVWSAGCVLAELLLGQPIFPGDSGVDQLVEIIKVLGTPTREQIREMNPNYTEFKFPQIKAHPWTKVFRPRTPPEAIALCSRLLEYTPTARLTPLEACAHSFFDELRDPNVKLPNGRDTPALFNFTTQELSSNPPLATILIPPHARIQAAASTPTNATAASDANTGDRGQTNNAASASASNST
# Test method notes: Assay 6 - GSK3b assay (ThermoFisher, FRET Z-Lyte)
# Assay type: biochemical
# Condition description: geometric mean; ATP Conc: 10.000 μM; read-out: Assay 6 (GSK3B FRET-Z-Lyte CR) GMean IC50 (μM) ATP Conc: 10.000

Known IC50 results, listed for orientation:
O=c1ccc(OC(F)F)cn1-c1ccc(N[C@H]2CC[C@H](Nc3nc4cccnc4o3)C2)nc1; > 10 µM
O=c1c(Cl)cccn1-c1ccc(N[C@H]2CC[C@H](Nc3nc4cccnc4o3)C2)nc1; > 10 µM

# next molecule below
[in] Fill in the blank: the reported IC50 of `COc1cccn(-c2ccc(N[C@H]3CC[C@H](Nc4nc5cccnc5[nH]4)C3)nc2)c1=O` is ____.
[out] 0.066 µM

====

# Assay system: potassium ion channel hERG (human Ether-á-go-go-Related Gene) (Homo sapiens)
# Construct: expressed in transfected cells; host or cells: Chinese hamster ovary K1 (CHO)
# Test method notes: Assay 5 - hERG assay (SyncroPatch 384PE patch clamp, CHO cells)
# Format: cell-based
# Condition description: geometric mean, CHO cells over-expressing hERG, read-out: Assay 5 (hERG Hu CHO IF EPh CR-Syncro) GMean IC50
Catalogue of IC50 values

Previously resolved entries follow.
O=c1ccccn1-c1ccc(N[C@H]2CC[C@H](Nc3nc4cccnc4s3)C2)nc1; > 40 µM
COc1ccc(=O)n(-c2ccc(N[C@H]3CC[C@H](Nc4nc5cccnc5s4)C3)nc2)c1; > 40 µM
Cn1ccc(=O)n(-c2ccc(N[C@H]3CC[C@H](Nc4nc5cccnc5s4)C3)nc2)c1=O; > 40.1 µM

Now consider the entry below.
[in] // query IC50 value for entry `O=c1ccccn1-c1ccc(N[C@H]2CC[C@H](Nc3nc4c(Cl)c(Cl)cnc4[nH]3)C2)nc1`
[out] 32 µM

====

# Assay system: potassium ion channel hERG (human Ether-á-go-go-Related Gene) (Homo sapiens, UniProt Q12809)
# Sequence (Q12809 whole entry): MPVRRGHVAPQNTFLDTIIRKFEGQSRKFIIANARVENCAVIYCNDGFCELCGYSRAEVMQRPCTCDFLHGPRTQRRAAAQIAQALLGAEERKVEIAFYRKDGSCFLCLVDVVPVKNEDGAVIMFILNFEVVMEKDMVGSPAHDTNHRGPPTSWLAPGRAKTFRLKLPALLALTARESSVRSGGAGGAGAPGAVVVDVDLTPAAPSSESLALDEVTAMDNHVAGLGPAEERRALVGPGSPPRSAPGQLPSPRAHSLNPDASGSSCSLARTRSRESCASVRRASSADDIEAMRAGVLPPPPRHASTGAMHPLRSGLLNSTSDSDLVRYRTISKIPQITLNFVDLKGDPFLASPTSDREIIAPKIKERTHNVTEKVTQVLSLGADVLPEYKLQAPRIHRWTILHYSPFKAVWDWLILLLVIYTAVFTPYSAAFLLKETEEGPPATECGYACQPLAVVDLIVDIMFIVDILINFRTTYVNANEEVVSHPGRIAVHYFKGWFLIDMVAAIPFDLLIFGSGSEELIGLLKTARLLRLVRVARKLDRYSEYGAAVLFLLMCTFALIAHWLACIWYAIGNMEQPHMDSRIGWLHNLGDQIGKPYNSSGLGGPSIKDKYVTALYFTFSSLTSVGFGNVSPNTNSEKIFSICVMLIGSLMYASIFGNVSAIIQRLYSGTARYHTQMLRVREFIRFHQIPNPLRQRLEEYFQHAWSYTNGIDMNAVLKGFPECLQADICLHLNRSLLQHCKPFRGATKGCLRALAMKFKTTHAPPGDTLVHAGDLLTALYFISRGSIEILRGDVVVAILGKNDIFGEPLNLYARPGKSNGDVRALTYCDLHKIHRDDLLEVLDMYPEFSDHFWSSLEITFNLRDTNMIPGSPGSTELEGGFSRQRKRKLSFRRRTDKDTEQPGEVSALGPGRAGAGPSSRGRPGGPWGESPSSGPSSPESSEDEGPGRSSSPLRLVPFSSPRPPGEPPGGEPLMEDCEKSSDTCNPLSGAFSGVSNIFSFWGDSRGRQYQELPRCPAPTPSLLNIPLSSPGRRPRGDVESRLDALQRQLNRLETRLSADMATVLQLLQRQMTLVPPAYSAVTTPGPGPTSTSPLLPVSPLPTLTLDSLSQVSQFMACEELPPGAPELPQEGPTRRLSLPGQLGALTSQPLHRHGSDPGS
# Test method notes: Assay 5 - hERG assay (SyncroPatch 384PE patch clamp, CHO cells)
# Condition description: geometric mean, CHO cells over-expressing hERG, read-out: Assay 5 (hERG Hu CHO IF EPh CR-Syncro) GMean IC50
pIC50: −log10 of the molar value.
Class Met: pIC50 at least 5. Class Not met: pIC50 below 5.

A selection of reference data follows.
O=c1ccccn1-c1ccc(N[C@H]2CC[C@H](Nc3nc4cccnc4[nH]3)C2)cc1; Not met
O=c1ccc(Cl)cn1-c1ccc(N[C@H]2CC[C@H](Nc3nc4cccnc4[nH]3)C2)nc1; Not met
Cn1cccc(-c2cnc(N[C@H]3CC[C@H](Nc4nc5cccnc5[nH]4)C3)cn2)c1=O; Not met
Cn1c(=O)n(-c2ccc(N[C@H]3CC[C@H](Nc4nc5cccnc5[nH]4)C3)nc2)c2ccccc21; Not met
O=c1ccccn1-c1ccc(N[C@H]2CC[C@H](Nc3nc4cc(CO)cnc4s3)C2)nc1; Not met
Fc1ccccc1-c1ccc(N[C@H]2CC[C@H](Nc3nc4cccnc4[nH]3)C2)nc1; Met

Switching to the query record.
[in] Check the entry `O=c1c(OC(F)F)cccn1-c1ccc(N[C@H]2CC[C@H](Nc3nc4cccnc4o3)C2)nc1` : does pIC50 equal or exceed 5?
[out] Met
